- Test system: T-47D breast
- protocol-details: NCI-60 one-dose screen, 48 h
- experimental-conditions: 10 µM unless noted
- Procedure: Growth inhibition of the T-47D human tumor cell line is measured as a screen for anti-cancer activity. Cells are grown in 96 well plates and exposed to the test compound for 48 hours. Compounds are tested at a single concentration, which is 10^-5 M for most compounds. The reported endpoint is percent growth (GI% or GIPRCNT), where numbers from 0 - 100% represent growth inhibition, and numbers from -100% - 0 represent cell death. For example, a value of 40 represents 60% growth inhibition. […]
Compounds without any hit were thinned out: in the full panel of roughly 83,000, 20% have a hit. Calls of active or inactive are those of the source. Rule for the calls: active = growth percent below 10; inactive = the rest.
Possible outcomes: active, inactive

{"columns": ["compound", "classification"],
 "data": [
  ["C[n+]1c2ccccc2nc2c(N)cc(N)cc21", "inactive"],
  ["CCOC(=O)/C(C#N)=C(\\C)CCc1ccccc1", "inactive"],
  ["COc1ncc(-c2ccc3nc(N)n(-c4ccccc4C(F)(F)F)c(=O)c3c2)cc1S(=O)(=O)Nc1ccc(F)cc1F", "inactive"],
  ["C[C@H]1[C@H](C)CC[C@]2(C(=O)N3CCN(C)CC3)CC[C@]3(C)C(=CC[C@@H]4[C@@]5(C)C/C(=C/c6ccco6)C(=O)C(C)(C)[C@@H]5CC[C@]43C)[C@H]12", "inactive"],
  ["C=C1C(=O)O[C@H]2[C@H]1CC/C(COC(=O)NCc1ccc(Cn3c(=O)sn(-c4ccc(Cl)cc4)c3=O)cc1)=C\\CC[C@@]1(C)O[C@@H]21", "inactive"],
  ["COc1cc2c(c(Br)c1N)-c1cc(Br)c(N)cc1C2=O", "inactive"],
  ["CC1(C)CC[C@]2(C(=O)O)CC[C@]3(C)C(=CC[C@@H]4[C@@]5(C)C/C(=C/c6ccco6)C(=O)C(C)(C)[C@@H]5CC[C@]43C)[C@@H]2C1", "active"],
  ["COc1ccc(NCc2cn(-c3ccc(C(=O)O)cc3)nc2-c2ccc(C(=O)O)cc2)cc1C(F)(F)F", "inactive"],
  ["COc1ccc2nc3ccccc3c(NCCNCCO)c2c1", "active"],
  ["COc1ccc(/C=C/C=C\\C(=O)c2ccc(-n3ccnc3)cc2)cc1", "inactive"],
  ["O=C1CN(Cc2ccc(C(=O)NO)cc2)C(=O)[C@@H](Cc2ccccc2)N1", "inactive"],
  ["CCOC(=O)c1c[nH]c2cc(OCC3CC3)c(OCC3CC3)cc2c1=O", "inactive"],
  ["O=C1CC(c2ccccc2)Cc2nc3ccc(Br)cc3cc21 (stereo not given)", "inactive"],
  ["C=C(CN=[N+]=[N-])[C@@H]1CC[C@]2(C)[C@H](CC[C@@H]3[C@H]4[C@H]5OC(=O)[C@@]4(CCC5(C)C)CC[C@]32C)[C@@]1(C)CCC#N", "inactive"],
  ["O=C(NCc1ccccc1)C(Cl)Cl", "inactive"],
  ["CCN(CC)c1ccc2cc(C(Nc3ccc(Cl)cc3)c3nnnn3C(C)(C)C)c(=O)oc2c1 (stereo not given)", "inactive"],
  ["Cn1cc(-c2noc(-c3cn(C)c4ncc(F)cc34)n2)c2ccccc21", "inactive"],
  ["CCOC(=O)CC(c1ccccc1)C(C#N)c1ccccc1 (stereo not given)", "inactive"],
  ["COc1ccc2c(c1)C(C)Cc1c(Cl)nc(C)nc1N2C (stereo not given)", "inactive"],
  ["CCCN1CC(c2ccc(OC)c(OC)c2)=C(c2cn(C(=O)OCC)c3ccccc23)C1=O", "inactive"],
  ["c1cc2ccc3cc2cc1CNCCN1CCNCc2ccc4ccc(cc4c2)CNCCN(CCNC3)CCNCc2ccc3ccc(cc3c2)CNCC1", "active"],
  ["C[C@@H]1C[C@H]2C(=O)O[C@@H](C)[C@H](NC(=O)[C@H](Cc3cc(F)cc(F)c3)NC(=O)Nc3ccc(Cl)cc3F)C(=O)N3C[C@H](O)C[C@H]3C(=O)N3CCN(C)C[C@H]3C(=O)N[C@@H](C)C(=O)N2C1", "inactive"],
  ["CC1(C)CC[C@]23CC[C@]4(C)[C@H](CC[C@@H]5[C@@]6(C)C/C(=C/c7ccncc7)C(=O)C(C)(C)[C@@H]6CC[C@]54C)[C@H]2[C@H]1OC3=O", "inactive"],
  ["O=C1CC(C(F)(F)F)Cc2nc3ccc(Br)cc3cc21 (stereo not given)", "inactive"],
  ["O=C(OCc1ccc2c(Cl)cc(Cl)c(O)c2n1)N1CCN(C(=O)c2cc3cc(F)ccc3[nH]2)CC1", "inactive"],
  ["CC[C@]12C=CCN3CC[C@@]4(c5ccc(OC)cc5N(C)[C@H]4[C@@](O)(C(=O)OC)[C@@H]1OC(=O)CCC(=O)O[C@H]1CC[C@H]4[C@@H]5CCC6=CC(=O)CC[C@@H]6[C@H]5CC[C@]14C)[C@@H]32", "inactive"],
  ["Cc1ccc(NC(=O)N[C@@H](Cc2cc(F)cc(F)c2)C(=O)N[C@@H]2C(=O)N3CCC[C@H]3C(=O)N3CCCC[C@H]3C(=O)N[C@@H](C)C(=O)N3C[C@H](C)C[C@H]3C(=O)O[C@H]2C)cc1", "inactive"],
  ["O=[N+]([O-])c1cccc(/C=C/c2ccc3ccccc3n2)c1", "inactive"],
  ["NS(=O)(=O)c1ccc(CCN2C(=O)/C(=C\\c3ccccc3)C=C2c2ccc(Cl)cc2)cc1", "inactive"],
  ["CCCC(NC(=O)OCc1ccccc1)C(=O)O (stereo not given)", "inactive"],
  ["CCOC(CNC(=O)c1cccc([N+](=O)[O-])c1)OCC", "inactive"],
  ["CCCCCN(CCCCC)CCCCCCCCN1CCCc2ccccc21", "inactive"],
  ["N/C(=N\\c1nc2ccccc2[nH]1)NC(=O)Cc1cccc2ccccc12", "inactive"],
  ["O=C(Nc1cccc2ccccc12)c1cc2ccccc2cc1O", "inactive"],
  ["CC(C)=CC/C=C(/C)[C@H]1CC[C@]2(C)[C@@H]1CC[C@@H]1[C@@]3(C)CCCNC(C)(C)[C@@H]3CC[C@]12C", "active"]
]}

###

- Test system: OVCAR-5 ovarian
- protocol-details: NCI-60 one-dose screen, 48 h (100 = growth as untreated, 0 = no growth, -100 = all killed)
- experimental-conditions: 10 µM unless noted
Compounds without any hit were thinned out: in the full panel of roughly 83,000, 20% have a hit. The source made the active and inactive calls. The calls were made as follows: active = growth percent below 10; inactive = the rest.
Recorded growth for the following molecules

{"columns": ["molecule", "growth"],
 "data": [
  ["O=C1/C(=C\\c2cn(CC(O)CN3CCCCC3)c3ccccc23)c2ccccc2N1c1c(Cl)cccc1Cl (stereo unspecified)", "-92.7% (active)"],
  ["C[C@H]1[C@H](C)CC[C@]2(C(=O)O)CC[C@]3(C)C(=CC[C@@H]4[C@@]5(C)C/C(=C/c6ccco6)C(=O)C(C)(C)[C@@H]5CC[C@]43C)[C@H]12", "-48.8% [100 µM] (active)"],
  ["N#CCCc1c[nH]c2ccccc12", "102% (inactive)"],
  ["Cc1ccc(-n2nc3n(/c2=N\\C(=O)NS(=O)(=O)c2ccc(C)cc2)CCN3C2=NCCN2)cc1", "95.4% (inactive)"],
  ["C#CCNC(=O)CC[C@@H](C)[C@H]1CC[C@H]2[C@@H]3CC[C@@H]4CC(=O)CC[C@]4(C)[C@H]3CC[C@]12C", "-45.4% [100 µM] (active)"],
  ["O=C1C(Cl)=C(Nc2ccc3cn[nH]c3c2)C(=O)c2ccccc21", "-37.9% (active)"],
  ["c1ccc(-c2nnc(-c3c[nH]c4ncccc34)s2)cc1", "125% (inactive)"],
  ["COc1ccc(-c2cc(-c3ccccc3)nc(NCCNc3ccnc4cc(Cl)ccc34)n2)cc1", "-96.6% (active)"],
  ["CC(C)[C@H]1COC(=O)N1[C@@H]1C(=O)N([C@@H](CCC(=O)N2CCN(C3CCCC3)CC2)C(=O)N[C@@H]2CCCc3ccccc32)[C@@H]1/C=C/c1cccc(Cl)c1", "105% (inactive)"],
  ["C[C@]12CCc3c(ccc4cc(O)ccc34)[C@@H]1CC[C@H]2O", "107% (inactive)"],
  ["Cc1cccc(/C=C2\\N=C(c3ccccc3)N(c3ccc(S(N)(=O)=O)cc3)C2=O)c1", "99.1% (inactive)"],
  ["Cc1ccc(S(=O)(=O)NCCCNc2nccc(-c3c(-c4cccc(F)c4)nc4occn34)n2)cc1", "96.5% (inactive)"],
  ["COc1ccc2c(c1)C(C)Cc1c(Cl)nc(C)nc1N2C (stereo unspecified)", "56.2% (inactive)"],
  ["COc1cc2c(cc1OCCCN1CCN(CCCOc3cc4c(cc3OC)C(=O)N3C[C@H](F)C[C@H]3C=N4)CC1)N=C[C@@H]1C[C@@H](F)CN1C2=O", "9.91% (active)"],
  ["O=C(Nc1cc(-c2cccnc2)nc(NCCCN2CCOCC2)n1)c1cc(Br)cc(C(F)(F)F)c1", "81.4% (inactive)"],
  ["Cc1cc(-c2ccc(N=Nc3c(S(=O)(=O)O)cc4cc(S(=O)(=O)O)cc(N)c4c3O)c(C)c2)ccc1N=Nc1cc(S(=O)(=O)O)c2ccccc2c1O", "86.8% (inactive)"],
  ["CN(C)CCOc1ccc(/C(=C(/CCCl)c2ccccc2)c2ccccc2)cc1", "47% (inactive)"],
  ["CCNC(=O)N1CCc2c(Cl)c3c(c(OC)c2[C@@H]1[C@H]1OCc2c1ccc(OC)c2OC)OCCO3", "38.1% (inactive)"],
  ["COc1ccc2c(c1)C(C)Cc1c(Cl)ncnc1N2C (stereo unspecified)", "41.5% (inactive)"],
  ["O=C(N=c1n(-c2ccccc2)nc2n1CCN2C1=NCCN1C(=O)c1ccc(Cl)cc1)c1ccc(Cl)cc1", "88.8% (inactive)"],
  ["CCN(CC)CCSC(=O)C(O)(c1ccccc1)C1CCCC1 (stereo unspecified)", "94.6% (inactive)"],
  ["C[C@@H]1C[C@H]2C(=O)O[C@@H](C)[C@H](NC(=O)[C@H](Cc3cc(F)cc(F)c3)NC(=O)Nc3ccc(C4CC4)cc3F)C(=O)N3CCC[C@H]3C(=O)N3CCCC[C@H]3C(=O)N[C@@H](C)C(=O)N2C1", "-2.59% (active)"],
  ["CSc1nc(N)c(N=Nc2ccc(S(=O)(=O)Nc3nnc(C)s3)cc2)c(=O)[nH]1", "113% (inactive)"],
  ["COc1ccc2c(c1)c(-c1noc(-c3cn(C)c4ncc(F)cc34)n1)cn2C", "87.6% (inactive)"],
  ["CCN(CC)CCS(=O)(=O)CCNc1ccnc2cc(Cl)ccc12", "18.6% (inactive)"],
  ["Cc1nc(Cl)c2c(n1)N(C)c1ccc(Cl)cc1C(C)C2 (stereo unspecified)", "101% (inactive)"],
  ["CCn1cc(-c2cc(-c3ccc(Cl)cc3)nc(N)n2)c(-c2ccc(Br)cc2)n1", "68.7% (inactive)"],
  ["CCCCCCCCN(CCCCCCCC)CC(O)c1ccc(Cl)c(C)c1Cl (stereo unspecified)", "84.1% (inactive)"],
  ["ClC1=C(Cl)C(Cl)=C(Cl)C1=Cc1ccccc1", "-60.9% (active)"],
  ["CC(C)(C)c1cc(C(=O)Nc2ccc(C(=O)NCCN)cc2)cc(C(C)(C)C)c1", "49.3% (inactive)"],
  ["CC(C)OC(=O)Nc1cc(F)c(F)cc1F", "93.5% (inactive)"],
  ["Nc1ccc(Cl)c([N+](=O)[O-])c1", "86% (inactive)"],
  ["CCOC(=O)c1nn(C2CCCCO2)c2ccc(NS(=O)(=O)c3ccc(C)cc3)cc12 (stereo unspecified)", "110% (inactive)"],
  ["O=C(NCCCCCCCNC(=O)OCc1ccc2c(Cl)cc(Cl)c(O)c2n1)OCc1ccc2c(Cl)cc(Cl)c(O)c2n1", "-76.8% (active)"],
  ["COc1cc(/C=C/C(=O)/C=C/c2ccc(-n3ccnc3)cc2)ccc1O", "100% (inactive)"],
  ["CC(C)=CC/C=C(/C)[C@H]1CC[C@]2(C)[C@@H]1CC[C@@H]1[C@@]3(C)CC/C(=N/O)C(C)(C)[C@@H]3CC[C@]12C", "80.6% [100 µM] (inactive)"]
]}
